Test system: UACC-257
assay summary: NCI tumour cell line growth inhibition, 48 h
Active and inactive are the calls of the source. Rule as the data show it: active = GI50 up to about 1.1 µM and inactive = higher.
experimental readout: GI50

compound	obs value
Nc1cc2ncnn2c(SCC(=O)N/N=C/C(Br)=C\c2ccccc2)n1	9.62 µM (inactive)
CC(C)(CN1CCCCC1)C(=O)/C=C/c1ccc(Cl)cc1	6.4 µM (inactive)
CCCCCCCCCCCCCCCCOCC(CC(F)(F)P(=O)(O)O)OC(C)=O (stereo not given)	> 50 µM (inactive)
CC1=C2C(=O)c3ccccc3C(=O)[C@H]2C[C@@H](N2CCCC2=O)O1	65.6 µM (inactive)
O=C1CC2(c3ccccc3)ON=C(c3ccccc3)N2c2ccccc2N1 (stereo not given)	71.8 µM (inactive)
O=C(O)CO/N=C1/C(=C2/C(=O)Nc3ccccc32)Nc2ccccc21	> 100 µM (inactive)
CN(C)c1nc(N(C)C)nc(N(C)C23CC4CC(CC(C4)C2)C3)n1	34.3 µM (inactive)
CCCCCCCCCCCCCC(=O)OCC(CCS(=O)(=O)O[C@H]1CC[C@@]2(C)C(=CC[C@@H]3C2CC[C@]2(C)C(=O)CCC32)C1)OC(=O)CCCCCCCCCCCCC (stereo not given in full)	> 100 µM (inactive)
CC(=O)OCC1OC(Oc2cc(C)c(O)cc2C/C=C(\C)CC/C=C(\C)CC(=O)CC(C)C)C(O)C(OC(C)=O)C1OC(C)=O (stereo not given)	12.1 µM (inactive)
COC1OC(COCc2ccc(Cl)cc2)C(OCc2ccc(Cl)cc2)C1O (stereo not given)	16.3 µM (inactive)
NC(=O)c1nnn(-c2ccccc2)c1O	> 100 µM (inactive)
O=C(CC/C=C(/CS(=O)(=O)c1ccccc1)S(=O)(=O)c1ccccc1)c1ccccc1	> 100 µM (inactive)
CCOC(=O)C(=O)NC12CC3CC(CC(C3)C1)C2	> 100 µM (inactive)
C=CCc1cccc2cc(C(=O)Nc3ccc(C)cc3)c(=N)oc12	> 100 µM (inactive)
C=C[C@@]1(C)CC(=O)[C@]2(O)[C@@]3(C)[C@@H](OC(C)=O)CCC(C)(C)[C@@H]3[C@H](O)[C@H](OC(C)=O)[C@@]2(C)O1	> 100 µM (inactive)
CN(C)c1nc2n(CCO)c(-c3ccccc3)c(-c3ccccc3)nc-2c(=O)n1	> 100 µM (inactive)
NCCCC(N)(C(=O)O)C(F)F (stereo not given)	> 5000 µM (inactive)
Cc1cc(O)c2c(c1O)C(=O)C13C(=C(O)C4C(O)C1C1C(O)C3C(O)=C3C(=O)c5c(O)cc(C)c(O)c5C(=O)C341)C2=O (stereo not given)	0.267 µM (active)
CC(C)(C)OC(=O)NC1CC=CCC1NC(=O)OC(C)(C)C (stereo not given)	> 100 µM (inactive)
COc1cc2c(cc1OC)-c1cc3cc(OC)c(OC)cc3c(=O)n1CC2	26.1 µM (inactive)
CCN(CC)CCC1(C(=O)OC)SCCc2ccc(C)cc21 (stereo not given)	> 100 µM (inactive)
c1ccc2c(c1)SCCc1cn[nH]c1-2	> 100 µM (inactive)
O=C(O)C(O)Cc1ccccn1 (stereo not given)	> 100 µM (inactive)
O=C(C1OC1c1ccc(Br)cc1O)C12CC3CC(CC(C3)C1)C2 (stereo not given)	29 µM (inactive)
Cc1nc2ccccc2c(=O)n1NC(=O)c1ccc(CS)cc1	20.4 µM (inactive)
COc1ccc(C2(CC(C)C)CCNC2)cc1OC (stereo not given)	> 100 µM (inactive)
C=CC[C@H]1[C@@H](O[Si](C)(C)C(C)(C)C)[C@H](n2ccc(=O)[nH]c2=O)O[C@@H]1CO[Si](C)(C)C(C)(C)C	2.45 µM (inactive)
CC(=O)N1NC(c2ccccc2)=NC(=O)C1c1cc(C)c(O)c(C)c1 (stereo not given)	31.2 µM (inactive)
FC(F)=C(c1ccc(-c2ccc(Cl)cc2)cc1)C(F)(F)F	20 µM (inactive)
CC(C)=CC(=O)C1c2cccc(O)c2C(=O)c2c(O)cc(C)cc21 (stereo not given)	2.88 µM (inactive)
O=CN/C=C/c1cc(O)ccc1O	13.5 µM (inactive)
CCCCCCCCOCC(O)CO (stereo not given)	> 100 µM (inactive)
O=c1c2c3c(sc2nc2n1N=C(c1ccc(Br)cc1)CS2)CCCC3	> 100 µM (inactive)
CC(=O)NC1=C(C)C(=O)c2c(nc3n2CCC3OC(=O)c2ccccc2)C1=N (stereo not given)	1.24 µM (inactive)
C[S+](C)CC1OC(n2cnc3c(N)ncnc32)C(O)C1O (stereo not given)	> 225 µM (inactive)
